B1: HESX1 (parent)
chain: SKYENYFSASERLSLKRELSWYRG

- Variants of: B1
- protocol.notes: protein stability index of a GFP-peptide fusion (GPS, HEK-293T) (PSI 1-6); higher = more stable;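 further: lentivirally expressed fusions sorted by FACS into six bins by GFP to DsRed ratio, PSI derived from sequencing read proportions per bin multiplied by bin number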
- condition.context: c terminus: a fixed tail appended
Use 2 as the dividing line for protein stability index, with the line itself on the 1.0 side and lower values as 0.0.

INSERT INTO results (mutation_name, assigned_category) VALUES
  ('Y6C', 0.0),
  ('L15K', 1.0),
  ('W21S', 1.0),
  ('E4V', 1.0),
  ('W21K', 0.0),
  ('S14G', 0.0),
  ('E4L', 1.0),
  ('K16A', 1.0),
  ('A9I', 0.0),
  ('S14Q', 1.0),
  ('S20P', 0.0),
  ('E4S', 0.0),
  ('S10G', 0.0),
  ('N5Q', 1.0),
  ('A9D', 1.0),
  ('L13Y', 0.0),
  ('R12I', 1.0),
  ('R17E', 0.0),
  ('E18I', 0.0),
  ('S20Y', 1.0),
  ('L15E', 1.0),
  ('G24N', 0.0),
  ('S8M', 0.0),
  ('E18P', 1.0),
  ('L15Q', 1.0),
  ('L19F', 1.0),
  ('S1E', 0.0),
  ('S8N', 0.0),
  ('S8F', 1.0),
  ('K16R', 0.0),
  ('K2L', 0.0),
  ('S1A', 0.0),
  ('G24K', 1.0),
  ('S10C', 1.0),
  ('R23C', 0.0),
  ('G24H', 1.0),
  ('L15R', 1.0),
  ('S20W', 1.0),
  ('S14W', 1.0),
  ('E11G', 0.0),
  ('E4G', 1.0),
  ('K2I', 0.0),
  ('A9L', 0.0),
  ('A9S', 0.0),
  ('S10A', 1.0),
  ('R17N', 0.0),
  ('S1N', 0.0),
  ('G24L', 0.0),
  ('S20R', 1.0),
  ('E18N', 1.0),
  ('S10N', 1.0),
  ('K2C', 1.0),
  ('W21P', 1.0),
  ('S1H', 1.0),
  ('S14C', 1.0),
  ('E4T', 1.0),
  ('K16H', 0.0),
  ('Y3F', 0.0),
  ('L13N', 1.0),
  ('E4D', 1.0),
  ('S1M', 0.0),
  ('Y22C', 1.0),
  ('K2T', 1.0),
  ('R12E', 1.0),
  ('L19G', 0.0),
  ('Y3P', 0.0),
  ('Y6V', 0.0),
  ('L19H', 1.0),
  ('F7K', 0.0),
  ('R12C', 1.0),
  ('L15D', 1.0),
  ('G24I', 0.0),
  ('R23P', 1.0),
  ('K16V', 1.0),
  ('N5T', 1.0),
  ('K16S', 0.0),
  ('G24P', 1.0),
  ('Y22H', 1.0),
  ('S10R', 1.0);

Ref: the supplement of paper PMC10567573
